Listing: IC50 of selected molecules
- System: CMV Davis strain
- Assay comment: Activity against HCMV: virus-induced cytopathicity in HEL cells
- Type: cell-based, human cytomegalovirus (HCMV)
- Test conditions: Human betaherpesvirus 5, 168 h; CMV-infected HEL cells, virus-induced cytopathicity after seven days; read-out: Antiviral IC50 (μg/ml) Davis strain

Cc1ccc(C)c(C(Cl)S(=O)(=O)c2cccc(C)[n+]2[O-])c1 (centres unmarked) [Compound 73] : > 20 µg/mL
Cc1ccc(C)c(C(C)S(=O)(=O)c2cccc(Cl)[n+]2[O-])c1 (centres unmarked) [Compound 76] : > 9.1 µg/mL

Entry under test: Cc1ccc(C)c(CSc2ccccn2)c1.Cl [Compound 157] . Its IC50 was > 50 µg/mL

Entry under test: Cc1ccc(C)c(C(C)S(=O)(=O)c2c(Cl)ccc[n+]2[O-])c1 (centres unmarked) [Compound 124] . Its IC50 was > 5 µg/mL

Entry under test: COc1ccc(CSc2cc(C(C)(C)C)cc[n+]2[O-])cc1 [Compound 134] . Its IC50 was > 50 µg/mL

Entry under test: CCc1cccc2c(C)cc(S(=O)(=O)C(C)c3ccccc3)nc12 (centres unmarked) [Compound 107] . Its IC50 was > 20 µg/mL

Entry under test: Cc1ccc[n+]([O-])c1[S+]([O-])Cc1c(Cl)cccc1Cl (centres unmarked) [Compound 138] . Its IC50 was > 50 µg/mL

Entry under test: Cc1ccc([N+](=O)[O-])c(CS(=O)(=O)c2cccc[n+]2[O-])c1 [Compound 62] . Its IC50 was > 5 µg/mL
